target: Thromboxane-A synthase (Rattus norvegicus, UniProt P49430); test: In vitro inhibition of thromboxane-A2 synthase in rat whole blood during clotting at 37 degrees Centigrade
Sequence (P49430 whole entry): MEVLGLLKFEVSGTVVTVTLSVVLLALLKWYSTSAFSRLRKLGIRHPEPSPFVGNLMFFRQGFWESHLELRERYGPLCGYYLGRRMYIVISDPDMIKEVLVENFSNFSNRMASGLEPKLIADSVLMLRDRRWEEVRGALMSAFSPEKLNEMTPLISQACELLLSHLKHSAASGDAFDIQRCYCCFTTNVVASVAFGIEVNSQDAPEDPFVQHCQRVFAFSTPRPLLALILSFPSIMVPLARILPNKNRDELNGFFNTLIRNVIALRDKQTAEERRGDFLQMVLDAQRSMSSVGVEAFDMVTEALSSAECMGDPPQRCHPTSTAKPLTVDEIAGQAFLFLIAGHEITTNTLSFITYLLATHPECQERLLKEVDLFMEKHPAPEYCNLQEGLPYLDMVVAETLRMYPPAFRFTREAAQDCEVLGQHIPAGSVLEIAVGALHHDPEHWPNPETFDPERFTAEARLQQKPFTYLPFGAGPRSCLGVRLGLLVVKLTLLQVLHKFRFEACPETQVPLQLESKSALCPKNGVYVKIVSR
MEASUREMENT_TYPE: log10(IC50) (log10 of the value in nM)
On a log10 scale: recorded IC50, unit nM.

I am curious: what log10(IC50) value has been reported for CC(/C(=N\OCCCCC(=O)O)c1ccccc1)n1ccnc1 (configuration not stated) ?
2.20

I am curious: what log10(IC50) value has been reported for COc1ccc(CC(/C(=N/OCCCCC(=O)O)C2CCCCC2)n2ccnc2)cc1 (configuration not stated) ?
2.51

I am curious: what log10(IC50) value has been reported for O=C(O)CCCCO/N=C(\c1ccccc1)C(Cc1ccc(F)cc1)n1ccnc1 (configuration not stated) ?
2.59

I am curious: what log10(IC50) value has been reported for CC(C)(CCCO/N=C(\c1ccccc1)C(Cc1ccccc1)n1ccnc1)C(=O)O (configuration not stated) ?
2.88

I am curious: what log10(IC50) value has been reported for O=C(CCCCO/N=C(\C1CCCCC1)C(Cc1ccccc1)n1ccnc1)NO (configuration not stated) ?
2.85

I am curious: what log10(IC50) value has been reported for `CCCCCC/C(Cn1ccnc1)=N\OCCCCC(=O)O` ?
2.56

I am curious: what log10(IC50) value has been reported for `O=C(O)CCCCO/N=C(/Cn1ccnc1)C1CCCCC1` ?
2.81

I am curious: what log10(IC50) value has been reported for O=C(O)CCCCO/N=C(\C1CCCCC1)C(Cc1ccccc1)n1ccnc1 (configuration not stated) ?
1.78

I am curious: what log10(IC50) value has been reported for O=C(O)CCCCCO/N=C(\c1ccccc1)C(Cc1ccccc1)n1ccnc1 (configuration not stated) ?
3.04

I am curious: what log10(IC50) value has been reported for O=C(O)CCCCO/N=C(\C1CCCCC1)C(Cc1ccc(C(F)(F)F)cc1)n1ccnc1 (configuration not stated) ?
2.95

I am curious: what log10(IC50) value has been reported for O=C(O)CCCCO/N=C(/c1ccccc1)C(Cc1ccccc1)n1ccnc1 (configuration not stated) ?
1.30

I am curious: what log10(IC50) value has been reported for `CCCCCC/C(Cn1ccnc1)=N/OCCCCC(=O)O` ?
1.60

I am curious: what log10(IC50) value has been reported for O=C(O)CCCCO/N=C(/c1cccnc1)c1cccc(C(F)(F)F)c1 [RIDOGREL] ?
1.48

I am curious: what log10(IC50) value has been reported for CC(C)(CCO/N=C(\c1ccccc1)C(Cc1ccccc1)n1ccnc1)CC(=O)O (configuration not stated) ?
2.72

I am curious: what log10(IC50) value has been reported for O=C(O)CCCCO/N=C(\c1ccccc1)C(Cc1ccc(Cl)cc1)n1ccnc1 (configuration not stated) ?
2.95

I am curious: what log10(IC50) value has been reported for O=C(O)CCCCO/N=C(\C1CCCCC1)C(Cc1ccc(F)cc1)n1ccnc1 (configuration not stated) ?
2.57
